Here, each record is paired with measured pIC50 data.
- measured_target: Human MGAT-2 (Homo sapiens (Human))
- Sequence (Q3SYC2 whole entry): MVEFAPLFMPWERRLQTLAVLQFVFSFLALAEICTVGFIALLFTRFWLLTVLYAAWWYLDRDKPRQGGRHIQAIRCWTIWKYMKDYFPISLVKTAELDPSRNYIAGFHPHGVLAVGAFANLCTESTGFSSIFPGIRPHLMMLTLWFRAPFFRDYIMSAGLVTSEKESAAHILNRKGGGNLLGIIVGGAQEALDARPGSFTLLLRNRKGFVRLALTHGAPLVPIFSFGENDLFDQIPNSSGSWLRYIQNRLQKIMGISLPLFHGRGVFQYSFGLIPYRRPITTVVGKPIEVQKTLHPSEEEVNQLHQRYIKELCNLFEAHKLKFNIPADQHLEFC
- experiment_description: MGAT LCMS Assay
- condition_description: recombinant MGAT-2 membranes expressed in Sf9 cells; 100 μM 2-oleoylglycerol, 15 μM oleoyl-Coenzyme A; LC/MS of diolein; read-out: h-MGAT LCMS IC50
pIC50: −log10 of the molar value.
readout_type: pIC50

1) O=C1N[C@@](c2cnn(CC/C=C/CCC(F)(F)F)c2)(C(F)(F)F)CC(c2ccc3c(c2)CCCC3)=C1C(=O)NS(=O)(=O)C1CC1 | 7.06
2) CCS(=O)(=O)NC(=O)C1=C(c2ccc(OC(F)F)cc2)C[C@](c2ccc(OCCCCCC(F)(F)F)cc2)(C(F)(F)F)NC1=O | 7.48
3) CC(C)Cn1ccc(C2=C(C(=O)NS(=O)(=O)C3CC3)C(=O)N[C@@](c3ccc(OCCCCCC(F)(F)F)cc3)(C(F)(F)F)C2)n1 | 7.37
4) CS(=O)(=O)NC(=O)C1=C(c2ccc(C3CC3)s2)C[C@](c2ccc(OCCCC(F)(F)F)cc2)(C(F)(F)F)NC1=O | 8.22
5) COc1ccc(C2=C(C(=O)NS(=O)(=O)N(C)C)C(=O)N[C@@](c3ccc(OCCCC(F)(F)F)cc3)(C(F)(F)F)C2)cc1 | 6.45
6) CS(=O)(=O)NC(=O)C1=C(c2ccn(CC3CCC3)n2)C[C@](c2ccc(OCCCC(F)(F)F)cc2)(C(F)(F)F)NC1=O | 8.10
